# tgt: P2X purinoceptor 7 (Homo sapiens)
# Sequence (Q99572 whole entry): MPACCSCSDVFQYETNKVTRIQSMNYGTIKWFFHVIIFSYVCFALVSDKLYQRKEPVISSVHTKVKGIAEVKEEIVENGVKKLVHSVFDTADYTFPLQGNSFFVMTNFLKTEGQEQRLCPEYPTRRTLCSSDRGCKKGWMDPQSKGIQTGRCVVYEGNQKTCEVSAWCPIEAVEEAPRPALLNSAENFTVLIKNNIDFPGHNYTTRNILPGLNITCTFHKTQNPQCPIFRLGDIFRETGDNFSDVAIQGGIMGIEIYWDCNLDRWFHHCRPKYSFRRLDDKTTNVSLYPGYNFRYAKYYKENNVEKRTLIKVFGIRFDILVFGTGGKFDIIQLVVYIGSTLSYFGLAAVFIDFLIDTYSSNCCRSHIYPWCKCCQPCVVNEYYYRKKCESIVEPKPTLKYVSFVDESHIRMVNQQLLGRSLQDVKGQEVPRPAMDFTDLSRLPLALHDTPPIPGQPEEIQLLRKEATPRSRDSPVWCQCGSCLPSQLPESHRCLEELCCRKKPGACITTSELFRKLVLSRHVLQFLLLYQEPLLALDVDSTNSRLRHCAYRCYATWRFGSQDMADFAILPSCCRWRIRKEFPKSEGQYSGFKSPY
Measured pIC50 of individual entries
// pIC50 here means minus log10 of the molar concentration (mol/L)

Cc1nc(/N=N/c2ccc(C(=O)O)cc2)c(COP(=O)(O)O)c(C=O)c1O: 6.22

Moving on to another compound below.
Need pIC50 of `Cc1nc(/N=N/c2cc(S(=O)(=O)O)c3cc([N+](=O)[O-])cc(S(=O)(=O)O)c3c2)c(COP(=O)(O)O)c(C=O)c1O` , thanks.
6.22

* * *

# tgt: P2X purinoceptor 3 (Homo sapiens, UniProt P56373)
# Sequence (P56373 whole entry): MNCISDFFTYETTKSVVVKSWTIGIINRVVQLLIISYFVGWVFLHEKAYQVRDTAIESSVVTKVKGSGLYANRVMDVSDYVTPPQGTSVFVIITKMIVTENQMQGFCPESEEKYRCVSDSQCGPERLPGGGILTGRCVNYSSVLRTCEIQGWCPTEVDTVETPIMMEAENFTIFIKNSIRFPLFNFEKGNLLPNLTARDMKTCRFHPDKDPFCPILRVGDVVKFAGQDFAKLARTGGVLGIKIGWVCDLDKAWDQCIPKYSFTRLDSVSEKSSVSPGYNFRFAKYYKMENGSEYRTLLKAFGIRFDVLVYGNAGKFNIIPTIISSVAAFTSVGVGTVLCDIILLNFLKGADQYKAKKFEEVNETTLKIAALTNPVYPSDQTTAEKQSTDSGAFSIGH
# protocol: Antagonist activity at human recombinant P2X3 receptor expressed in Xenopus oocytes assessed as inhibition of ATP-induced ion current incubated for 20 mins prior to ATP-induction by two-electrode voltage clamp assay
# Format: cell-based, Oocyte
measurement name: pIC50
// pIC50 here means minus log10 of the molar concentration (mol/L)

Need pIC50 of Cc1nc(/N=N/c2cc(S(=O)(=O)O)ccc2S(=O)(=O)O)c(COP(=O)(O)O)c(C=O)c1O [ISOPPADS] , thanks.
7.02
